Test system: chloroform induced ventricular tachy-cardia
Experiment: Alternative chloroform test on mice: ventricular tachycardia inhibition and ataxia
Type: in vivo
Details: Mus musculus; sc.; mice, chloroform; groups of 10 animals per dose-level
assay readout: ED50 (mg/kg)
Please state the figure in mg/kg; there is no need to write the unit.

molecule	assay readout	output unit	result value
CC(C)NCC(O)COc1cccc2ccccc12 (stereo not shown)	ED50	mg/kg	0.6
Cc1cccc(C)c1NC(=O)C(C)N (stereo not shown) [Tocainide, reference compound]	ED50	mg/kg	90
COCCc1ccc(OCC(O)CNCCCCc2ccc(OC)c(OC)c2)cc1 (stereo not shown)	ED50	mg/kg	1.2
COCCc1ccc(OCC(O)CNCCCc2ccccc2)cc1 (stereo not shown)	ED50	mg/kg	3
CC(=O)Nc1ccc(OCC(O)CNC(C)C)cc1 (stereo not shown) [Practolol, reference compound]	ED50	mg/kg	2

Documented ED50 of COCCc1ccc(OCC(O)CNCCc2ccc(O)cc2)cc1 (stereo not shown) : 3

Documented ED50 of COCCc1ccc(OCC(O)CNCc2ccccc2)cc1 (stereo not shown) : 35

Documented ED50 of COCCc1ccc(OCC(O)CNCCCCc2ccccc2)cc1 (stereo not shown) : 15

Documented ED50 of COCCc1ccc(OCC(O)CNCCOc2ccccc2)cc1 (stereo not shown) : 3

Documented ED50 of COCCc1ccc(OCC(O)CNC(C)C)cc1 (stereo not shown) : 2.6

Data origin: patent EP0007294A2
